molecular target: CHEK2 (human) (UniProt O96017); assay: radiometric filter-binding kinase assay, Kinase HotSpot; details: compound 0.5 µM; ATP 10 µM
Sequence (O96017 whole entry, looked up): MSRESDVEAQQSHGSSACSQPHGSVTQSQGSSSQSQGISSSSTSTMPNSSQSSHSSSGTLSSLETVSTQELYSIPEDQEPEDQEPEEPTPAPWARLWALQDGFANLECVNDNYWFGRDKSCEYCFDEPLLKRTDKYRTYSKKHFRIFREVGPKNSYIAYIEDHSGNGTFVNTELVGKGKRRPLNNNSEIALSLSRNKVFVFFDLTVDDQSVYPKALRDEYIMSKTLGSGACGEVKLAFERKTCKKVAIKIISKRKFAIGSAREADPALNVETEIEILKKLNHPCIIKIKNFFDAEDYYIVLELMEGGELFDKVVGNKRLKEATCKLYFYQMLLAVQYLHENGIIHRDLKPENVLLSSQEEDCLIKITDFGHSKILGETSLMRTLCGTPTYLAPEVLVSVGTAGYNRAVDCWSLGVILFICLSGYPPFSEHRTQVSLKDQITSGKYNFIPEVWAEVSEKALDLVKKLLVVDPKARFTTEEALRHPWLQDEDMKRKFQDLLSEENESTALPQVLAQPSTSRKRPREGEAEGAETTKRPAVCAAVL
measured.endpoint: residual activity (%)
Give the value, in units of %, as a plain number.

# molecule, tested.on, observed.value
data = [
    ("O=C1Nc2ccccc2/C1=C1\\Nc2ccccc2\\C1=N/O", "CHEK2 (human) (UniProt O96017)", 32.3),
    ("Cn1nc2c3c(cccc31)C(=O)c1ccccc1-2", "CHEK2 (human) (UniProt O96017)", 89.8),
    ("CN([C@@H](Cc1ccc(OS(=O)(=O)c2cccc3cnccc23)cc1)C(=O)N1CCN(c2ccccc2)CC1)S(=O)(=O)c1cccc2cnccc12", "CHEK2 (human) (UniProt O96017)", 101),
    ("COc1cc2ncnc(N3CCN(C(=O)Nc4ccc(Oc5ccccc5)cc4)CC3)c2cc1OC", "CHEK2 (human) (UniProt O96017)", 102),
    ("O=C(O)/C=C/c1cc(Br)c(Br)c(Br)c1Br", "CHEK2 (human) (UniProt O96017)", 77.5),
]

Would you mind telling me what residual activity value was observed for COc1cc2ncc(-c3ccccc3)nc2cc1OC ?
94.2

Would you mind telling me what residual activity value was observed for O=C1Cc2c([nH]c3ccc(Br)cc23)-c2ccccc2N1 ?
59

Would you mind telling me what residual activity value was observed for O=C1NC(=O)/C(=C\c2ccc3nccnc3c2)S1 ?
90.3

Would you mind telling me what residual activity value was observed for COc1ccc(OC)c2c(=S)c3ccccc3[nH]c12 ?
117

Would you mind telling me what residual activity value was observed for O=C1NC(=O)C(c2cn(CCCO)c3ncccc23)=C1c1cnccn1 ?
97.7

Would you mind telling me what residual activity value was observed for O=C1Nc2ccccc2/C1=C1/Nc2ccccc2/C1=N\OCCC(O)CO (stereo unspecified) ?
27

----------
molecular target: MUSK (human); experiment: radiometric filter-binding kinase assay, Kinase HotSpot; conditions: compound 0.5 µM; ATP 10 µM
Labelling field: enter fulfilled if recorded residual activity is less than 90%. Enter not fulfilled if it equals or exceeds that cut-off.

# compound, assigned.class
records = [
    ("CC(C)c1nn(-c2c(Cl)cccc2Cl)c2nc(Cc3ccc(OCCO)cc3)nc(O)c12", "not fulfilled"),
    ("O=C1NC(=O)/C(=C\\c2ccc3nccnc3c2)S1", "fulfilled"),
    ("Nc1nnc2[nH]c3ccccc3nc1-2", "fulfilled"),
    ("O=C1Nc2ccccc2/C1=C1/Nc2ccccc2/C1=N\\OCCC(O)CO (configuration not stated)", "fulfilled"),
]

State whether 90% exceeds residual activity recorded for COc1ccc(CNC(=O)Nc2ncc([N+](=O)[O-])s2)cc1 .
not fulfilled

State whether 90% exceeds residual activity recorded for COc1cc2ncc(-c3ccccc3)nc2cc1OC .
not fulfilled

State whether 90% exceeds residual activity recorded for CC(=O)O/N=C1\C(=C2\C(=O)Nc3cc(Br)ccc32)Nc2ccccc21 .
fulfilled

State whether 90% exceeds residual activity recorded for Cn1sc(=O)n(Cc2ccccc2)c1=O .
not fulfilled

State whether 90% exceeds residual activity recorded for COc1ccc(OC)c2c(=S)c3ccccc3[nH]c12 .
fulfilled

State whether 90% exceeds residual activity recorded for Nc1nccc(-c2c(-c3ccc(F)cc3)ncn2C2CCNCC2)n1 .
fulfilled

State whether 90% exceeds residual activity recorded for O=C1NC(=O)C(c2cn(CCCO)c3ncccc23)=C1c1cnccn1 .
fulfilled

State whether 90% exceeds residual activity recorded for Cn1cnc2cc3c(Nc4cccc(Br)c4)ncnc3cc21 .
fulfilled

State whether 90% exceeds residual activity recorded for O=C(CCCc1ccc(-c2ccccc2F)cc1)Nc1ccc(O)cc1 .
not fulfilled

State whether 90% exceeds residual activity recorded for O=C(Nc1cccc(Nc2cc(Nc3cccc(C(F)(F)F)c3)ncn2)c1)C1CC1 .
not fulfilled

----------
target: STK33 (human); test: radiometric filter-binding kinase assay, Kinase HotSpot; conditions: compound 0.5 µM; ATP 10 µM
measured.endpoint: residual activity (%)
Give the value, in units of %, as a plain number.

Answered examples (10):
# molecule, unit.symbol, residual activity
records = [
    ("O=C1NC(=O)/C(=C\\c2ccc3nccnc3c2)S1", "%", 66.3),
    ("COc1cc2ncc(-c3ccccc3)nc2cc1OC", "%", 91.7),
    ("O=C1Nc2ccccc2/C1=C1/Nc2ccccc2/C1=N\\OCCC(O)CO (configuration not stated)", "%", 22.3),
    ("COc1ccc(OC)c2c(=S)c3ccccc3[nH]c12", "%", 98.4),
    ("COc1cc(OC)c(/C=C2\\C(=O)Nc3ccccc32)c(OC)c1", "%", 89.5),
    ("CCn1cnc2c(Nc3cccc(Cl)c3)nc(N[C@@H]3CCCC[C@@H]3N)nc21", "%", 88.9),
    ("O=C1c2ccccc2-[n+]2ccc3c([nH]c4ccccc43)c21", "%", 101),
    ("Nc1nccc(-c2c(-c3ccc(F)cc3)ncn2C2CCNCC2)n1", "%", 98.6),
    ("O=C1Nc2ccccc2/C1=C1\\Nc2ccccc2\\C1=N/O", "%", 44.1),
    ("O=C(CCCc1ccc(-c2ccccc2F)cc1)Nc1ccc(O)cc1", "%", 97),
]

Query the reported residual activity for STK33 (human); item: Nc1nnc2[nH]c3ccccc3nc1-2
98.7

Query the reported residual activity for STK33 (human); item: Cn1sc(=O)n(Cc2ccccc2)c1=O
101

----------
biological target: NEK11 (human) (UniProt Q8NG66); assay: radiometric filter-binding kinase assay, Kinase HotSpot; conditions: compound 0.5 µM; ATP 10 µM
Sequence (Q8NG66 whole entry, looked up): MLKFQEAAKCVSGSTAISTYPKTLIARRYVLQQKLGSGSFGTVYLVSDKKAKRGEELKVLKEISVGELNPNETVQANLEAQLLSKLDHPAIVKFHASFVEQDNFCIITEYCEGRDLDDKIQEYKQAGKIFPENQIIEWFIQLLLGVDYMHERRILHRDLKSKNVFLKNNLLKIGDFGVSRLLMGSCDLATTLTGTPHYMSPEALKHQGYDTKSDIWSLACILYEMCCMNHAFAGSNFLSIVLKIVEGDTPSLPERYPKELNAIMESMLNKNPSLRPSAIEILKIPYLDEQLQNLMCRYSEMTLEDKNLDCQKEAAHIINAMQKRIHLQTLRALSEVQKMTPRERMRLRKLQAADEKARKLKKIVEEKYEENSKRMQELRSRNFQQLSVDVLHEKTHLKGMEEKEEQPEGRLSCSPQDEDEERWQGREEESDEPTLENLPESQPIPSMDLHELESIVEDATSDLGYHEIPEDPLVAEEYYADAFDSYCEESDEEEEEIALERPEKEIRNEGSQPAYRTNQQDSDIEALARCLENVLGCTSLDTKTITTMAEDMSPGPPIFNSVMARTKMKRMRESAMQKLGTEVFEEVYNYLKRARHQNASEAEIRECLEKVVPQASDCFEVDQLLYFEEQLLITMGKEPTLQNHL
measured.endpoint: residual activity
Kindly report the value followed by its unit.

# chemical.smiles, residual activity
rows = [
    ("CCN(CC)CCCCN1c2ccccc2Oc2ccc(Cl)cc21", "92%"),
]

Would you mind telling me what residual activity value was observed for O=C1NC(=O)C(c2c[nH]c3ccccc23)=C1c1c[nH]c2ccccc12 ?
108%

Would you mind telling me what residual activity value was observed for CCn1cnc2c(Nc3cccc(Cl)c3)nc(N[C@@H]3CCCC[C@@H]3N)nc21 ?
101%

Would you mind telling me what residual activity value was observed for COc1ccc(CNC(=O)Nc2ncc([N+](=O)[O-])s2)cc1 ?
104%

Would you mind telling me what residual activity value was observed for O=C1Cc2c([nH]c3ccc(Br)cc23)-c2ccccc2N1 ?
107%

Would you mind telling me what residual activity value was observed for Nc1nnc2[nH]c3ccccc3nc1-2 ?
110%

Would you mind telling me what residual activity value was observed for COc1cc2ncc(-c3ccccc3)nc2cc1OC ?
114%

Would you mind telling me what residual activity value was observed for COc1cc2ncnc(N3CCN(C(=O)Nc4ccc(Oc5ccccc5)cc4)CC3)c2cc1OC ?
107%

----------
We begin with a simple list: items and their reported residual activity.
target: STK11 (human) (UniProt Q15831); assay: radiometric filter-binding kinase assay, Kinase HotSpot; details: compound 0.5 µM; ATP 10 µM
Sequence (Q15831 whole entry, looked up): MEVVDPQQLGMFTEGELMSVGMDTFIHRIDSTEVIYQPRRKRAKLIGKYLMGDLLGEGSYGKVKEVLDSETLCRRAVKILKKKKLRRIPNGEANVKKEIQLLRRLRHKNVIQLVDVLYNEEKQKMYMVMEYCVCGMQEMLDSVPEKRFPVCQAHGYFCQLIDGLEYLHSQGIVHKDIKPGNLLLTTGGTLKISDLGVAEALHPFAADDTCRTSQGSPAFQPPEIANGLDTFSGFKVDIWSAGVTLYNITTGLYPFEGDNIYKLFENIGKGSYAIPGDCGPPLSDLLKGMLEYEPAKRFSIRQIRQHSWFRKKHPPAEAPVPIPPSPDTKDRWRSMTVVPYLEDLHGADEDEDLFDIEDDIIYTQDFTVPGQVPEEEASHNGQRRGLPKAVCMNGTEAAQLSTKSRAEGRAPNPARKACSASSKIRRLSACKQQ
Give the value, in units of %, as a plain number.

# chemical.smiles, residual activity (%)
rows = [
    ("COc1ccc(OC)c2c(=S)c3ccccc3[nH]c12", 84.4),
]

Would you mind telling me what residual activity value was observed for Cn1cnc2cc3c(Nc4cccc(Br)c4)ncnc3cc21 ?
91.1

Would you mind telling me what residual activity value was observed for Nc1nccc(-c2c(-c3ccc(F)cc3)ncn2C2CCNCC2)n1 ?
89.1

Would you mind telling me what residual activity value was observed for O=C(Nc1cccc(Nc2cc(Nc3cccc(C(F)(F)F)c3)ncn2)c1)C1CC1 ?
100

Would you mind telling me what residual activity value was observed for O=C1NC(=O)C(c2c[nH]c3ccccc23)=C1c1c[nH]c2ccccc12 ?
107

Would you mind telling me what residual activity value was observed for CC(C)c1nn(-c2c(Cl)cccc2Cl)c2nc(Cc3ccc(OCCO)cc3)nc(O)c12 ?
47.7

----------
biological target: PAK7 (human); assay: radiometric filter-binding kinase assay, Kinase HotSpot; settings: compound 0.5 µM; ATP 10 µM
measured.endpoint: residual activity (%)
Give the value, in units of %, as a plain number.

# chemical.smiles, observed.value
measured = [
    ("COc1cc2ncc(-c3ccccc3)nc2cc1OC", 85.6),
    ("O=C(O)/C=C/c1cc(Br)c(Br)c(Br)c1Br", 90.6),
    ("O=C1NC(=O)/C(=C\\c2ccc3nccnc3c2)S1", 97.4),
    ("Cc1nc2cc3nc(-c4cccs4)cnc3cc2n1C", 114),
    ("CN(C)C[C@H]1CCn2c(c(C3=C(c4cn(C)c5ccccc45)C(=O)NC3=O)c3ccccc32)C1", 100),
]

Would you mind telling me what residual activity value was observed for COc1ccc(OC)c2c(=S)c3ccccc3[nH]c12 ?
82.9

Would you mind telling me what residual activity value was observed for Nc1nccc(-c2c(-c3ccc(F)cc3)ncn2C2CCNCC2)n1 ?
101

Would you mind telling me what residual activity value was observed for O=C1Cc2c([nH]c3ccc(Br)cc23)-c2ccccc2N1 ?
85.1

Would you mind telling me what residual activity value was observed for COc1ccc(CNC(=O)Nc2ncc([N+](=O)[O-])s2)cc1 ?
95.4

Would you mind telling me what residual activity value was observed for Cn1cnc2cc3c(Nc4cccc(Br)c4)ncnc3cc21 ?
86.1

Would you mind telling me what residual activity value was observed for Nc1nnc2[nH]c3ccccc3nc1-2 ?
98.4

Would you mind telling me what residual activity value was observed for CC(C)c1nn(-c2c(Cl)cccc2Cl)c2nc(Cc3ccc(OCCO)cc3)nc(O)c12 ?
76.4

Would you mind telling me what residual activity value was observed for CC(=O)O/N=C1\C(=C2\C(=O)Nc3cc(Br)ccc32)Nc2ccccc21 ?
89.1

Would you mind telling me what residual activity value was observed for CCn1cnc2c(Nc3cccc(Cl)c3)nc(N[C@@H]3CCCC[C@@H]3N)nc21 ?
64.7

Would you mind telling me what residual activity value was observed for Cn1nc2c3c(cccc31)C(=O)c1ccccc1-2 ?
102

Would you mind telling me what residual activity value was observed for CN([C@@H](Cc1ccc(OS(=O)(=O)c2cccc3cnccc23)cc1)C(=O)N1CCN(c2ccccc2)CC1)S(=O)(=O)c1cccc2cnccc12 ?
103

Values compiled from the kinase profiling compilation of Christmann-Franck et al. (2016).
